Source: paper PMC5148066

Below is a list of entries, each paired with its recorded koff value.
# Experimental System: Bovine papular stomatitis virus chemokine-binding protein (Bovine papular stomatitis virus)
# Experiment Notes: SPR; BPSV-CBP immobilised on a CM5 chip (~500 RU, amine coupling, 10 mM sodium acetate pH 4.5); serial dilutions of mouse chemokines in HBS-EP pH 7.4 flowed in triplicate, 3 min association, 10 min dissociation, 25°C, Biacore X100; global fit, 1:1 binding model
Give the value in s⁻¹ but do not write s⁻¹ after it.

Solved cases below.
Prompt: Returns the measured koff for the input binder. Input: mouse CCL3 (ligand) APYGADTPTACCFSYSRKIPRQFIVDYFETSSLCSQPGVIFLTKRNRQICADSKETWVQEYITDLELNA
Completion: 0.00023

Prompt: Returns the measured koff for the input binder. Input: mouse XCL1 (ligand) VGTEVLEESSCVNLQTQRLPVQKIKTYIIWEGAMRAVIFVTKRGLKICADPEAKWVKAAIKTVDGRASTRKNMAETVPTGAQRSTSTAITLTG
Completion: 0.00135

Prompt: Returns the measured koff for the input binder. Input: mouse CXCL1 (ligand) APIANELRCQCLQTMAGIHLKNIQSLKVLPSGPHCTQTEVIATLKNGREACLDPEAPLVQKIVQKMLKGVPK
Completion: 0.00316

More entries:
Prompt: Returns the measured koff for the input binder. Input: mouse CXCL4 (ligand) VTSAGPEESDGDLSCVCVKTISSGIHLKHITSLEVIKAGRHCAVPQLIATLKNGRKICLDRQAPLYKKVIKKILES
Completion: 0.00234

Prompt: Returns the measured koff for the input binder. Input: mouse CXCL2 (ligand) AVVASELRCQCLKTLPRVDFKNIQSLSVTPPGPHCAQTEVIATLKGGQKVCLDPEAPLVQKIIQKILNKGKAN
Completion: 0.00056
